Below, each of the compounds is paired with its reported MIC value.
system: Staphylococcus aureus; assay: Antibacterial activity against Methicillin-resistant Staphylococcus aureus N315 assessed as inhibition of bacterial growth incubated for 24 hrs by Muller hinton broth based dilution assay; type: functional

Here are 2 compounds together with their reported answers.
INSERT INTO results (compound, result_value) VALUES
  ('CCCCCn1c2ccccc2c2c(OCC3CO3)cccc21 (stereo not drawn)', '> 50 µg/mL'),
  ('CCCCCCCn1c2ccccc2c2c(OCC3CO3)cccc21 (stereo not drawn)', '> 50 µg/mL');

Query compound follows.
Record Cn1c2ccccc2c2c(OCC3CO3)cccc21 (stereo not drawn) : what is its MIC with Staphylococcus aureus? > 50 µg/mL
